Quick reference for logP among some compounds
Measure: logP

>>> test_result("CC(=O)c1ccccc1NCC#N")
1.58
>>> test_result("CCCC[SiH](C)C")
3.57
>>> test_result("c1ccc(-c2nc3ccccc3[nH]2)cc1")
3.24
>>> test_result("CCCCC(=O)OCC(=O)C1(O)C(C)CC2C3CCC4=CC(=O)C=CC4(C)C3(F)C(O)CC21C (stereo unspecified)")
3.87
>>> test_result("COC1CC(OC2CCC3(C)C(CCC4C3CCC3(C)C(C5=CC(=O)OC5)C(OC(C)=O)CC43O)C2)OC(C)C1O (stereo unspecified)")
2.53
>>> test_result("O=C(O)c1cc(O)c(O)c(O)c1")
0.7
>>> test_result("CC(C)(C)c1ccccc1OCC(=O)O")
3.33
>>> test_result("CCc1cccc(N2C(=O)CCC2=O)c1")
1.04
>>> test_result("FC(F)F")
0.64
>>> test_result("CN(C)C(N(C)C)=S(I)c1ccccc1C(=O)O (stereo unspecified)")
-1.4
>>> test_result("C#Cc1ccccc1")
2.53
>>> test_result("O=C1NC(=O)C(c2cccnc2)N1 (stereo unspecified)")
-0.95
>>> test_result("Clc1cc(Cl)nc(Cl)c1")
2.68
>>> test_result("CCCC(N)C(=O)O (stereo unspecified)")
-2.11
>>> test_result("Cc1cnnc2ccc(Cl)cc12")
1.96
>>> test_result("Nc1ccncc1")
0.32
>>> test_result("O=C1CN=C(c2ccccc2)c2cc(F)ccc2N1")
2.32
>>> test_result("OB(O)c1ccccc1")
1.58
>>> test_result("CC(C)=CC1C(C(=O)OCc2ccccc2)C1(C)C (stereo unspecified)")
5.49
>>> test_result("CS(=O)c1ccccc1 (stereo unspecified)")
0.55
>>> test_result("COCC(=O)Nc1c(I)c(C(=O)NCC(O)CO)c(I)c(C(=O)N(C)CC(O)CO)c1I (stereo unspecified)")
-2.05
>>> test_result("C=CCN(C(C)=O)C(C)C")
1.14
>>> test_result("COc1ccc2cc(C(C)C(=O)OCC(=O)N(C)CC(N)=O)ccc2c1 (stereo unspecified)")
1.37
>>> test_result("COc1ccc(-c2cc3ccccn3c2)cc1")
4.2
>>> test_result("O=CNc1cccc(Cl)c1")
1.9
>>> test_result("O=C(CN1CCCCC1)Nc1ccccc1F")
2.16
>>> test_result("CC(Cl)(Cl)C(=O)O")
0.78
>>> test_result("CCCCCCOc1ccc(NC(=O)OCCN2CCCCC2)cc1")
5.41
>>> test_result("COC(=O)/C=C\\C(=O)OC")
0.22
>>> test_result("Cc1cccc(C=C(C(N)=O)C(N)=O)c1")
0.4
>>> test_result("CCN(CC)C(=O)[C@@H]1C=C2c3cccc4[nH]cc(c34)C[C@H]2N(C)C1")
2.95
